Value source: PubChem BioAssay (NCATS)

- Test system: CP325
- procedure details: qHTS profiling for inhibitors of Plasmodium falciparum proliferation (AID 504749); also: nearly all actives have a fitted effect of over 60% in size
- condition: P. falciparum in erythrocytes, SYBR Green DNA, 72 h; series mostly up to 28.7 µM
Inconclusive results are not listed. Active and inactive are the calls of the source. Calls follow the shape of the dose curve; as a rule, active = well fitted inhibition curve with a large enough effect; inconclusive = small, poorly fitted or top-dose-only effect; inactive = flat fitted curve, though single readings scatter.
property label: outcome

{"compound": "NC(=O)[C@@H]1CCCN1C(=O)[C@H](Cc1cnc[nH]1)NC(=O)[C@@H]1CCC(=O)N1", "target": "CP325", "outcome": "inactive"}
{"compound": "CN1CCC(OC(=O)C(Oc2ccc(Cl)cc2)Oc2ccc(Cl)cc2)CC1", "target": "CP325", "outcome": "inactive"}
{"compound": "C=CC(C)(O)CC/C=C(\\C)CCC=C(C)C (configuration not stated)", "target": "CP325", "outcome": "inactive"}
{"compound": "C=Cc1ccc(S(=O)(=O)O)cc1", "target": "CP325", "outcome": "inactive"}
{"compound": "CN(C)CCOc1ccc(/C(=C(/CCCl)c2ccccc2)c2ccccc2)cc1", "target": "CP325", "outcome": "inactive"}
{"compound": "Cc1ncc[nH]1", "target": "CP325", "outcome": "inactive"}

Please give the measured outcome for this compound: O=c1n(CC2CO2)c(=O)n(CC2CO2)c(=O)n1CC1CO1 (configuration not stated) inactive

Quick one: `CC(=O)Nc1ccc(OC(=O)c2ccccc2O)cc1` inactive

How about `ClC(Cl)Cl` ? inactive

Query `CN(Cc1ccccc1)Cc1ccccc1` next inactive

Same lookup for `CC(C)(C)CC(C)(C)c1cc(Cc2cc(C(C)(C)CC(C)(C)C)cc(-n3nc4ccccc4n3)c2O)c(O)c(-n2nc3ccccc3n2)c1` , please. inactive

Entry to check: `c1ccc2ccccc2c1` inactive
